Reference source for all entries: PubChem BioAssay (Tox21)

- test: qHTS assay to identify small molecule antagonists of the sonic hedgehog signaling (Shh) pathway (AID 1259369); also: nearly all actives have a fitted effect of over 45% in size
- measurement parameters: NIH/3T3 Gli1-Luc reporter, Shh antagonist, luminescence 24 h; series mostly up to 92.4 µM
- Description: U.S. Tox21 Program National Center for Advancing Translational Sciences [NCATS] NIH Chemical Genomics Center [NCGC] U.S. Environmental Protection Agency [EPA] National Institutes of Environmental Health Sciences [NIEHS] National Toxicology Program [NTP] U.S. Food and Drug Administration [FDA] Tox21 Assay Overview: The sonic hedgehog (Shh) pathway is essential for normal embryonic development. Dysregulation of the Shh pathway can cause severe developmental defects in organs. […]
Inconclusive results are not listed. Active and inactive are the calls of the source. Calls follow the shape of the full dose curve.
Outcome codes: 1 (yes) for active, 0 (no) for inactive

molecule: COP(=O)(OC)Oc1ccc([N+](=O)[O-])cc1
label: 0 (no)
--
molecule: Clc1ccc(C2(Cn3cncn3)OCCO2)c(Cl)c1
label: 0 (no)
--
molecule: CCO/N=C(\CC)C1=C(O)CC(c2c(C)cc(C)cc2C)CC1=O (stereo not given)
label: 1 (yes)
--
molecule: COC(=O)N(OC)c1ccccc1COc1ccn(-c2ccc(Cl)cc2)n1
label: 1 (yes)
--
molecule: CCN(CC)Cc1nccn1-c1ccc([N+](=O)[O-])cc1C(=O)c1ccccc1Cl
label: 0 (no)
--
molecule: c1csc(-c2ccc(-c3cccs3)s2)c1
label: 0 (no)
--
molecule: S=C=Nc1ccccc1
label: 0 (no)
--
molecule: [Cl-].[Cl-].[Cl-].[Yb+3]
label: 0 (no)
--
molecule: ClCBr
label: 0 (no)
--
molecule: O=NN(CCO)CCO
label: 0 (no)
--
molecule: CCNc1nc(NC(C)C(C)C)nc(SC)n1 (stereo not given)
label: 1 (yes)
--
molecule: CN1CCc2cc(Cl)c(O)cc2[C@H]2c3ccccc3CC[C@@H]21
label: 0 (no)
--
molecule: Oc1ccc2[nH]cc(CCCCN3CC=C(c4ccccc4)CC3)c2c1
label: 1 (yes)
--
molecule: COc1cnc(OC)n2nc(NS(=O)(=O)c3c(OCC(F)F)cccc3C(F)(F)F)nc12
label: 0 (no)
--
molecule: O=C(O)CCCCCCNC1c2ccccc2CCc2ccccc21
label: 0 (no)

====

- measurement target: Nuclear receptor ROR-gamma (Homo sapiens)
- test: qHTS assay to identify small molecule antagonists of the retinoid-related orphan receptor gamma (ROR-gamma) signaling pathway (AID 1159521; also: nearly all actives have a fitted effect of over 50% in size)
- measurement parameters: Tet-on RORgamma CHO cells, RORE-luciferase, 16 h; series mostly up to 92.4 µM
Records with an inconclusive call do not appear. Calls of active or inactive are those of the source. Calls follow the shape of the dose curve; as a rule, active = well fitted inhibition curve with a large enough effect in the repeat runs; inconclusive = weak or mixed curves, or effect the other way; inactive = no such curve, though single readings can be large or run the other way.
Outcome codes: active, inactive

molecule: COc1c2c(cc3c1OCO3)CCN(C)C2
label: inactive

molecule: CC1=C2C[C@H]3[C@@H](CC=C4C[C@@H](O)CC[C@@]43C)[C@@H]2CC[C@]12O[C@@H]1C[C@H](C)CN[C@H]1[C@H]2C
label: active

molecule: CSSC
label: inactive

molecule: CCOP(=S)(OCC)Oc1cc(C)nc(N(CC)CC)n1
label: inactive

molecule: Cc1nn(-c2cc(NS(C)(=O)=O)c(Cl)cc2Cl)c(=O)n1C(F)F
label: inactive

molecule: O=C(O)CCCCCCNC1c2ccccc2CCc2ccccc21
label: inactive

molecule: CC1CCCC1
label: inactive

molecule: Clc1ccc(C(Cl)(Cl)Cl)cc1Cl
label: inactive

molecule: S=C=Nc1ccccc1
label: inactive

molecule: CC(Cc1ccc(OCC(=O)O)cc1)NCC(O)c1csc(C(F)(F)F)n1 (stereo not drawn)
label: inactive

molecule: O=[N+]([O-])c1ccc(Cl)c(Cl)c1Cl
label: inactive

molecule: [C-]1=CC=CC1.[Cl][Zr+2][Cl].c1cc[cH-]c1
label: inactive

molecule: ClC1=C(Cl)[C@]2(Cl)[C@H]3[C@H]([C@@H]4C=C[C@H]3C4)[C@@]1(Cl)C2(Cl)Cl
label: active

molecule: COc1ccc2c(c1OC)C(=O)O[C@@H]2[C@H]1c2cc3c(cc2CCN1C)OCO3
label: inactive

molecule: CC#C[C@]1(O)CC[C@H]2[C@@H]3C[C@H](C)C4=CC(=O)CC[C@]4(C)[C@H]3CC[C@@]21C
label: active

molecule: COc1nc(C)nc(NC(=O)NS(=O)(=O)c2ccccc2Cl)n1
label: inactive

molecule: COc1ccc2[nH]cc(CCN(C(C)C)C(C)C)c2c1
label: inactive

molecule: O=C1C[C@@H]2OCC=C3CN4CC[C@]56c7ccccc7N1[C@H]5[C@H]2[C@H]3C[C@H]46
label: inactive

molecule: Cc1ccc([N+](=O)[O-])[c]2c1[O][Hg]2
label: active

molecule: CCC1(CC)C(=O)N=C(O)NC1=O
label: inactive

molecule: O=[N+]([O-])C(Br)Br
label: inactive

molecule: CCNS(=O)(=O)C(F)(F)C(F)(F)C(F)(F)C(F)(F)C(F)(F)C(F)(F)C(F)(F)C(F)(F)F
label: inactive

molecule: CN1C2CCC(C)(C)C1CC(OC(=O)C(O)(c1cccs1)c1cccs1)C2 (stereo not drawn)
label: inactive

molecule: Nc1ccc(Cl)cc1C(=O)c1ccccc1F
label: inactive

molecule: COc1cnc(OC)n2nc(NS(=O)(=O)c3c(OCC(F)F)cccc3C(F)(F)F)nc12
label: inactive

molecule: NC1CCC(CC2CCC(N)CC2)CC1 (stereo not drawn)
label: inactive

molecule: N#Cc1sc2c(=O)c3ccccc3c(=O)c=2sc1C#N
label: active

molecule: Clc1cc(Cl)c(-c2cc(Cl)c(Cl)cc2Cl)cc1Cl
label: inactive

molecule: O=C(N[C@@H]1N=C(c2ccccc2F)c2cccc3c2N(CC3)C1=O)c1cc2ccccc2[nH]1
label: inactive

molecule: COC(=O)N(OC)c1ccccc1COc1ccn(-c2ccc(Cl)cc2)n1
label: active

molecule: Cc1ccc(C)c2ccccc12
label: inactive

molecule: Nc1ccc(N=Nc2ccccc2)cc1
label: inactive

molecule: CCCCCON=O
label: inactive

molecule: O=C(N[C@H]1N=C(c2ccccc2F)c2cccc3c2N(CC3)C1=O)c1cc2ccccc2[nH]1
label: inactive

molecule: O=C(NC(=O)c1ccccc1Cl)Nc1ccc(OC(F)(F)F)cc1
label: inactive

molecule: C=CC(=C)C
label: inactive

molecule: COP(=O)(OC)Oc1ccc([N+](=O)[O-])cc1
label: inactive

molecule: CC[C@H](C)[C@H]1O[C@]2(C=C[C@@H]1C)C[C@@H]1C[C@@H](C/C=C(\C)[C@@H](O[C@H]3C[C@H](OC)[C@@H](O[C@H]4C[C@H](OC)[C@@H](NC)[C@H](C)O4)[C@H](C)O3)[C@@H](C)/C=C/C=C3\CO[C@@H]4[C@H](O)C(C)=C[C@@H](C(=O)O1)[C@]34O)O2
label: active

====

- measurement target: Luciferin 4-monooxygenase (Photinus pyralis) (UniProt P08659)
- Sequence (P08659 whole entry, looked up): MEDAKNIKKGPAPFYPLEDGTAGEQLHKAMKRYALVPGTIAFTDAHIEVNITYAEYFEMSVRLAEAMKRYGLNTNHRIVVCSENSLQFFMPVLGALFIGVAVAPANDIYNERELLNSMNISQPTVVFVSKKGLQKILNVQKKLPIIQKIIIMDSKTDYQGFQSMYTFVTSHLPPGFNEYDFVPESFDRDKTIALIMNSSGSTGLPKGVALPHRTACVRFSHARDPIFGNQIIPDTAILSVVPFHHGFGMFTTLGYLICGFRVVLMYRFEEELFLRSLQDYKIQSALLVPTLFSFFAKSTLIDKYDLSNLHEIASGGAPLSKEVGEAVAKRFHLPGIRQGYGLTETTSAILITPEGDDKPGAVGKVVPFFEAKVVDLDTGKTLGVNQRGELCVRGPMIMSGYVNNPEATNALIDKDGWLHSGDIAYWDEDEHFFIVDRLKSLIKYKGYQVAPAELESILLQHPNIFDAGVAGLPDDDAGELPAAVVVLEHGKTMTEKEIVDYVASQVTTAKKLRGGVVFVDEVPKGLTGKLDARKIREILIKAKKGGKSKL
- test: qHTS assay to identify small molecule inhibitors of firefly luciferase (AID 1224835); also: nearly all actives have a fitted effect of over 25% in size
- measurement parameters: purified P. pyralis luciferase, luminescence inhibition; series mostly up to 115 µM
Records with an inconclusive call do not appear. Activity calls are given as the source filed them. The call rests on the fitted dose curve; in most records, active means well fitted inhibition curve with a large enough effect in the repeat runs; inconclusive means weak or mixed curves; inactive means flat fitted curve, though single readings scatter.
Outcomes: active, inactive

compound: C[N+]1(C)[C@@H]2CC[C@H]1CC(OC(=O)C(CO)c1ccccc1)C2 (stereo partly specified)
measurement target: Luciferin 4-monooxygenase (Photinus pyralis) (UniProt P08659)
label: inactive
//
compound: CCN(CC)CCc1c[nH]c2ccccc12
measurement target: Luciferin 4-monooxygenase (Photinus pyralis) (UniProt P08659)
label: inactive
//
compound: c1csc(-c2ccc(-c3cccs3)s2)c1
measurement target: Luciferin 4-monooxygenase (Photinus pyralis) (UniProt P08659)
label: active
//
compound: N#Cc1sc2c(=O)c3ccccc3c(=O)c=2sc1C#N
measurement target: Luciferin 4-monooxygenase (Photinus pyralis) (UniProt P08659)
label: active
//
compound: O=C(Nc1ccc(F)cc1F)c1cccnc1Oc1cccc(C(F)(F)F)c1
measurement target: Luciferin 4-monooxygenase (Photinus pyralis) (UniProt P08659)
label: inactive
//
compound: Nc1ccc(N=Nc2ccccc2)cc1
measurement target: Luciferin 4-monooxygenase (Photinus pyralis) (UniProt P08659)
label: active
//
compound: CCOC(=O)Cc1ccccc1
measurement target: Luciferin 4-monooxygenase (Photinus pyralis) (UniProt P08659)
label: inactive
//
compound: [Cl][Hg][c]1ccccc1
measurement target: Luciferin 4-monooxygenase (Photinus pyralis) (UniProt P08659)
label: active
//
compound: CC(Cc1ccc2c(c1)OCO2)NO (stereo unspecified)
measurement target: Luciferin 4-monooxygenase (Photinus pyralis) (UniProt P08659)
label: inactive
//
compound: CCc1cccc(C)c1N(C(=O)CCl)[C@@H](C)COC
measurement target: Luciferin 4-monooxygenase (Photinus pyralis) (UniProt P08659)
label: inactive
//
compound: Clc1cc(Cl)c(-c2cc(Cl)c(Cl)cc2Cl)cc1Cl
measurement target: Luciferin 4-monooxygenase (Photinus pyralis) (UniProt P08659)
label: inactive
